The measured values listed here are drawn from patent US3962282A.

test system: Tenebrio molitor pupae; assay: topical application to Tenebrio molitor pupae, maturation inhibition; assay type: in vivo; details: 1%; rating scale 0-4
PROPERTY LABEL: number of specimens in rating 3
Answer with the figure and its unit, nothing else.

Under Tenebrio molitor pupae, report number of specimens in rating 3 for `CC(C)=CCC/C(C)=C/CCc1ccc(Cl)cc1` 3 specimens

Under Tenebrio molitor pupae, report number of specimens in rating 3 for `COc1ccc(CCC=C(C)CCC=C(C)C)cc1` 5 specimens

Under Tenebrio molitor pupae, report number of specimens in rating 3 for `CCC(C)=CCCC(=CCCc1ccc2c(c1)OCO2)CC` 1 specimens

Under Tenebrio molitor pupae, report number of specimens in rating 3 for `CCCCCCCCCc1ccc2c(c1)OCO2` 1 specimens

Under Tenebrio molitor pupae, report number of specimens in rating 3 for `CC(C)=CCC/C(C)=C/CCc1ccc(N(C)C)cc1` 4 specimens

Under Tenebrio molitor pupae, report number of specimens in rating 3 for `CC(C)=CCCC(C)=CCCc1ccc2c(c1)OCCO2` 2 specimens
